Target or test system: Beta-3 adrenergic receptor (Homo sapiens, UniProt P13945)
Sequence (P13945 whole entry): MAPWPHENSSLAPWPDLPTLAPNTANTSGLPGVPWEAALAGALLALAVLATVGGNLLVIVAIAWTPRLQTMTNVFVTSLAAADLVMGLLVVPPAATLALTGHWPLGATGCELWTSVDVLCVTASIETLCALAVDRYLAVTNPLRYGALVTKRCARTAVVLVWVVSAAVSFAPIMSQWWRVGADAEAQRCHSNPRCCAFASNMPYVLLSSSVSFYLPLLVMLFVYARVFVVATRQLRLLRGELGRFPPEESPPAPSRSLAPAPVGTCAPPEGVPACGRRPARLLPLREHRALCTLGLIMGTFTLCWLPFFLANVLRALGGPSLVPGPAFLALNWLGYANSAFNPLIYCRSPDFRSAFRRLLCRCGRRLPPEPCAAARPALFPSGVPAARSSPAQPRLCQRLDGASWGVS
pIC50: −log10 of the molar value.

| Compound structure string | pIC50 |
| --- | --- |
| Cc1ccc(NC(=O)C[C@H](CCC(=O)O)c2noc([C@H]3C[C@@H](CC(C)(C)C)C3)c2C2CC2)c(Cl)c1 | < 5.00 |

----------
Test description: AUClast in human at 1000 mg/kg, po administered as single dose and measured upto 144 hrs
Format: ADME, organism-based
Protocol conditions: in vivo

| Compound structure string | AUC(0-t) at 144 h / µg·h/mL |
| --- | --- |
| Cc1ccc(NC(=O)C[C@H](CCC(=O)O)c2noc([C@H]3C[C@@H](CC(C)(C)C)C3)c2C2CC2)c(Cl)c1 | 241 |
